Provide the reported 8OG:A repair function score of each item.
B1: library; numbered along this chain (parent)
chain: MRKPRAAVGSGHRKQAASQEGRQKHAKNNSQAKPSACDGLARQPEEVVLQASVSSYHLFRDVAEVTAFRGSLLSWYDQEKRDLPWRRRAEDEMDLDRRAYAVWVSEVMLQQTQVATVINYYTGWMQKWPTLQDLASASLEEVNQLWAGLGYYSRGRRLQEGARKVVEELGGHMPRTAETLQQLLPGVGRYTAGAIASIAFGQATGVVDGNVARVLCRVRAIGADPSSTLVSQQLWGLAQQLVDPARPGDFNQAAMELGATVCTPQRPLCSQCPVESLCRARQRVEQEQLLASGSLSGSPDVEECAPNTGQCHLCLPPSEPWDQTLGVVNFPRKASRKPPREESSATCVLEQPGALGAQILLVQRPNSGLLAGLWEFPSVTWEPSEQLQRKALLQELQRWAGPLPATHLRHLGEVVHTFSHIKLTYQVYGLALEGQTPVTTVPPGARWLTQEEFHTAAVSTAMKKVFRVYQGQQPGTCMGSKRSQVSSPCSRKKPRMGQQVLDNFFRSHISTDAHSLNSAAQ

variants of: B1; assay: 8OG:A repair function score (normalized; synonymous = 0, nonsense = -1) (normalized log-likelihood score); higher = more repair activity (WT-like); conditions: with 8OG:A DNA repair reporter (GFP) in HEK-293 MUTYH KO cells;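 further: cells sorted at 72 h after reporter transfection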
Please reply with the number alone, leaving off any unit.

According to the records, this variant `Y425C` displays 8OG:A repair function score of -0.509

Per the records, this variant ( `R69M` ) has 8OG:A repair function score equal to -3.11

# 8OG:A repair function score of `K127R` = 0.014

// sample `Y120L` , its 8OG:A repair function score was -0.231

For record `P185Y` the listed 8OG:A repair function score is -0.363

Reported 8OG:A repair function score of `L369V` : -0.297

Lab book: 8OG:A repair function score of `S487C` noted as 0.0168

8OG:A repair function score reported for this variant `G471N` : 0.00878

The measured 8OG:A repair function score associated with `A36T` reads 0.118

variant `V427W` , 8OG:A repair function score observed: -0.831

Reported 8OG:A repair function score ( `L229G` ) = -0.0206

`T112R` has a reported 8OG:A repair function score of -0.922

Record `V348G` , field 8OG:A repair function score: -1.15

Per the records, this variant ( `R409E` ) has 8OG:A repair function score equal to 0.0558

For `Q78F` the variant record lists 8OG:A repair function score as -0.0455

Documented 8OG:A repair function score of `V47C` : 0.0227

For reference, reported 8OG:A repair function score for `T176W` stands at -0.419

8OG:A repair function score measured on `A238P` = -1.01

The reported 8OG:A repair function score of the variant `A162G` was -0.456

Query `S486K` yields 8OG:A repair function score of -0.0131

Lab note: measured 8OG:A repair function score of `A457Y` was -0.48

8OG:A repair function score in this record for `V274G` : -0.676
